quantity name: melting point

Returns the measured melting point for the input compound. Input: Cc1ccc(CCl)c2ccccc12 58 to 60 °C

Again, but for NS(=O)(=O)c1ccc(Br)s1 139 to 141 °C

Again, but for Cc1cc2ccccc2cc1CBr 88 to 102 °C

----------
Answer each item with its documented melting point.

Returns the measured melting point for the input compound. Input: O=[N+]([O-])c1ccc2[nH]c3c(c2c1)CCN(Cc1ccccc1)C3 213 to 214 °C

Again, but for CN1C2CCCC1CC(=O)C2 63 to 65 °C

Again, but for CC(=O)c1cc2cc(Cl)cc(Cl)c2oc1=O 172 to 174 °C

Again, but for O=Cc1cc2nccnc2s1 108 to 109 °C

Again, but for Ic1cccc2nsnc12 96 to 97 °C

Again, but for CC1(C)CCc2cc(S(=O)(=O)Cl)ccc2O1 92 to 94 °C

Again, but for O=S1(=O)OC(c2cc(Br)c(O)c(Br)c2)(c2cc(Br)c(O)c(Br)c2)c2c(Br)c(Br)c(Br)c(Br)c21 203 to 205 °C

Again, but for O=C(Cl)c1ccc2snnc2c1 93 to 96 °C

meta.source: a melting point compilation (Tetko et al.)
